Source of measurements: PubChem BioAssay (NCI)

System: HCC-2998 colon
Method: NCI-60 one-dose screen, 48 h
Measurement context: 10 µM unless noted
The panel holds about 83,000 compounds, 20% with a hit somewhere; the sample as a whole holds those more often. The source made the active and inactive calls. Rule for the calls: active = growth percent below 10; inactive = the rest.
Classes used: yes for active, no for inactive

>  <Molecule>
COc1ccc(/C(=C\c2cc(OC)c(OC)c(OC)c2)C(=O)N2CCCNCC2)cc1

>  <Assigned class>
no

$$$$
>  <Molecule>
COC(=O)c1cc(Cl)cc([N+](=O)[O-])c1O

>  <Assigned class>
no

$$$$
>  <Molecule>
CN(C)c1ccc(/C=C(\C#N)c2nc3ccccc3n2C)cc1

>  <Assigned class>
no

$$$$
>  <Molecule>
CSC(=S)N/N=C(\C)c1ccccn1

>  <Assigned class>
no

$$$$
>  <Molecule>
O=C(OCc1ccc2c(Br)cc(Br)c(O)c2n1)c1cc2ccccc2[nH]1

>  <Assigned class>
yes

$$$$
>  <Molecule>
CCCc1cc2c(cc1CN(Cc1cc3c(cc1CCC)OCO3)C(=N)OCC)OCO2

>  <Assigned class>
no

$$$$
>  <Molecule>
Cc1nc2ccc(Nc3nc(Cl)nc(N4CCOCC4)n3)cc2n1Cc1ccccc1

>  <Assigned class>
yes

$$$$
>  <Molecule>
NNC(=O)Cc1ccccc1

>  <Assigned class>
no

$$$$
>  <Molecule>
COc1ccc(C2=Nn3c(nnc3-c3ccc(Cl)cc3N)SC2)cc1

>  <Assigned class>
no

$$$$
>  <Molecule>
CN(C)c1ccc(Nc2c3ccccc3nc3ccccc23)cc1

>  <Assigned class>
yes

$$$$
>  <Molecule>
COc1cc(C)c2c(=O)c3c(oc2c1)C(=O)c1c(O)c(OC)cc(O)c1C3=O

>  <Assigned class>
yes

$$$$
>  <Molecule>
CC(=O)N[C@@H](CCC(N)=O)C(=O)O

>  <Assigned class>
no

$$$$
>  <Molecule>
COc1ccc(-c2nn(-c3cccc(Cl)c3)cc2/C=C2\C(=N)N(c3ccccc3)N=C2N)cc1

>  <Assigned class>
yes

$$$$
>  <Molecule>
NC(=O)c1noc(C(=O)c2ccccc2)c1N

>  <Assigned class>
no

$$$$
>  <Molecule>
Cc1nc([C@H]2CC[C@H]3[C@@H]4CCC5=CC(=O)CC[C@]5(C)[C@H]4CC[C@]23C)cs1

>  <Assigned class>
no

$$$$
>  <Molecule>
O=C1/C(=C\c2cccn2Cc2ccc(Cl)cc2)c2ccccc2N1c1c(Cl)cccc1Cl

>  <Assigned class>
no

$$$$
>  <Molecule>
c1ccc(C(CC2=NCCCN2)c2ccccc2)cc1

>  <Assigned class>
no

$$$$
>  <Molecule>
Clc1ccc(-c2nc(Br)cn3ccnc23)cc1

>  <Assigned class>
no

$$$$
>  <Molecule>
OC(c1cc2cc(Cl)ccc2c2cc(C(F)(F)F)ccc12)C1CCCCN1 (stereo not drawn)

>  <Assigned class>
yes

$$$$
>  <Molecule>
COc1ccc2[nH]c(C(=O)OCc3ccc4cccc(O)c4n3)cc2c1

>  <Assigned class>
yes

$$$$
>  <Molecule>
O=c1[nH]cnc2nc[nH]c12

>  <Assigned class>
no

$$$$
>  <Molecule>
CCCCCCCCCCCCCCCCOc1ccc(S(=O)(=O)N(C)C)cc1[N+](=O)[O-]

>  <Assigned class>
no

$$$$
>  <Molecule>
CC(=O)OC1Oc2cc(C)c(C)cc2-c2oc(=O)c(-c3ccc(F)cc3)cc21 (stereo not drawn)

>  <Assigned class>
no

$$$$
>  <Molecule>
COc1cc(-c2nc(-c3nc4cc(C(=O)c5ccccc5)ccc4[nH]3)cc3c2[nH]c2ccccc23)cc(OC)c1OC

>  <Assigned class>
no

$$$$
>  <Molecule>
COc1cc2nccc(Oc3ccc(NC(=O)C4(C(=O)Nc5ccc(F)cc5)CC4)cc3)c2cc1O

>  <Assigned class>
no

$$$$
>  <Molecule>
COC(=O)/C=C/c1cc(OC(C)=O)c2c(c1)[C@@H](C(=O)OC)[C@H](c1ccc(OC(C)=O)c(OC(C)=O)c1)O2

>  <Assigned class>
no

$$$$
>  <Molecule>
Cn1c(=O)c2[nH]c(Cc3ccc4c(c3)OCO4)nc2n(C)c1=O

>  <Assigned class>
no

$$$$
>  <Molecule>
COc1cc(C2C=C(C)N=C3SC=NN32)cc(OC)c1OC (stereo not drawn)

>  <Assigned class>
no

$$$$
>  <Molecule>
Cc1ccc2nc(CN(CCN(Cc3nc4ccc(C)cc4[nH]3)Cc3nc4ccc(C)cc4[nH]3)Cc3nc4ccc(C)cc4[nH]3)[nH]c2c1

>  <Assigned class>
yes

$$$$
>  <Molecule>
COc1cc(C2Nc3ccccc3S2)cc(CN2CCOCC2)c1O (stereo not drawn)

>  <Assigned class>
no

$$$$
>  <Molecule>
Cc1c(O)c(=O)n(-c2ccccc2)n1C

>  <Assigned class>
no

$$$$
>  <Molecule>
COc1ccc(/C=C(/C(=O)N2CCN(c3ccccc3)CC2)c2cc(OC)c(OC)c(OC)c2)cc1N

>  <Assigned class>
no

$$$$
>  <Molecule>
NS(=O)(=O)c1ccc(N2N=C(c3ccc(Br)cc3)CC2c2cn(-c3ccccc3)nc2-c2ccc(Cl)cc2)cc1 (stereo not drawn)

>  <Assigned class>
no

$$$$
>  <Molecule>
CC1=C(C(=O)Nc2ccc(F)cc2)C(c2ccc(C)cc2)C2=C(CC(C)(C)CC2=O)N1 (stereo not drawn)

>  <Assigned class>
no

$$$$
>  <Molecule>
COc1cc(C2CC(c3cccc(Nc4ccnc5cc(Cl)ccc45)c3)=NN2c2ccc(Cl)cc2)cc(OC)c1OC (stereo not drawn)

>  <Assigned class>
no

$$$$
>  <Molecule>
CN(C)c1ccc(C(c2ccccc2)c2ccc(N(C)C)cc2)cc1

>  <Assigned class>
no

$$$$
>  <Molecule>
CCCCn1c(-c2ccc(F)cc2)nc2cc(OC)c(OC)cc2c1=O

>  <Assigned class>
no

$$$$
>  <Molecule>
CCc1oc2ccccc2c1C(=O)c1cc(I)c(O)c(I)c1

>  <Assigned class>
no

$$$$
>  <Molecule>
COc1ccccc1/C=N\NC(=S)Nc1ccc(F)cc1

>  <Assigned class>
no

$$$$
>  <Molecule>
O=C(O)/C=C(\c1nc2ccc([N+](=O)[O-])cc2[nH]1)c1cc(Cl)ccc1O

>  <Assigned class>
no

$$$$
>  <Molecule>
Clc1ncnc2scc(C3COc4ccccc4O3)c12 (stereo not drawn)

>  <Assigned class>
no

$$$$
>  <Molecule>
N=c1n(Cc2ccccc2)c(N)cc(=O)n1Cc1ccccc1

>  <Assigned class>
no

$$$$
>  <Molecule>
CC1CN(CCCOC(=O)Nc2ccc(Cl)cc2)CCN1C(C)(C)C (stereo not drawn)

>  <Assigned class>
no

$$$$
